Each entry below carries its reported apparent KD of K4 kissing-loop reporter.
System: K4 kissing-loop RNA reporter
Assay: apparent KD of K4 kissing-loop reporter; higher = weaker reporter binding
Conditions: Eterna round: R107; input ligand: FMN 200 uM
Kindly answer with a numeric value in nM, unit omitted.

Record excerpt, results attached:
item-sequence	apparent KD of K4 kissing-loop reporter [nM]
CUUGGGCUUGCGGCCGCCACUCAAACAUCAUUAAGGAUGGUCCACGGGCAAGUGAUGUUUAUCCGGAGGACCGGGCAUAGCGACA [theeternabot_exclusion_KL_Trp_B_23]	337
UGUACCGAAUCAGGAUAUGUCGUCGAAAGACGAAAUGGAGUGAUGUUCCUUAAACUGCGAAAGCAGACAGAAGGGAUUUGGUACU [FmnBS 29 A9+U77]	161
GCCGUAGAUUGAAGGAGCGUGGAACUAUGGCUUGAACAGUGAUGUUGUUUAUCUAGGUAGCCACAGGUAGGUCGCAAUCUACGGC	266
GUCCCAGUGAUGUUGGUAGGCGAGCGGGAUACCAGCCAAGACUCAGGCCCUUGGCAGCCCACAUAUCCCACGUAGGGAUUAGCUC [Same State - Theophylline A (Freestyle 19)]	212
CUUCAGAUCUGAAGGAGCGCGUUACCAGAAUGCAUCAUAGAGCAGUGAUGUUGCUCUGGAUCGCAGGUAGGUCGCAGAUCUGACG [Arg B Ex t7b]	196

Kindly consider the entry below.
# apparent KD of K4 kissing-loop reporter lookup, item UGAUACCAGACUGAUACCAGCCAGUGAUGUUGGCUAAUCCAAGAAGGAGUCAAAGACUCCGGCCCUUGGCAGCAGUCUGGUAUCU [TheoBX 3 #SwitchBubble #StaticStem]
117

----------
Tested on: K4 kissing-loop RNA reporter;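 note: bound reporter read as fluorescence of individual clusters on recovered sequencing chips by microscopy, with normalized cluster intensities fitted with a binding model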
Assay: apparent KD of K4 kissing-loop reporter; higher = weaker reporter binding
Conditions: Eterna round: R107; input ligand: none
Class definitions on apparent KD of K4 kissing-loop reporter: band 1 (below 200 nM), band 2 (200 nM to below 500 nM), band 3 (500 nM or more)

Which apparent KD of K4 kissing-loop reporter category applies to AUUUUGAGUGAUGUUCAUAUCUAUUCUGAAGGAGCGCUAAAUAAGGCAGGUAGGUCGCGGAAUAUAUAUAUAUAUAUAUAUAUAU [KL-SSArg-A30] here?
band 3

Which category does the recorded apparent KD of K4 kissing-loop reporter put UCCUGCAAUGGACCACGAAAGUGGAUCGAUACCAGAGUCGAAAGACUCCCUUGGCAGCGAGUGAUGUUCGAAGCAGGUAAAUAAA [#SwitchBubble 21 #K4Late] in?
band 2

Hi there! Could you help me figure out the category for GCAACAUUGGUAGGAUAUCAUUCUGAGUGAUGUUCAGGGUUCAGCUAACGAAAGUUAGUUGUACCAUGAGAAGGACUAAUGUUGC [Omei KL FMN B SS A v3] please?
band 3

Hi, small favor: classify AAGUGAUGUUGUAGUGAUGUUGUGAUGUUGCAGGAUAUAUAGUGAUGUAGAAGGGUAAGUACUGAUUUUUUUUGUGAGUGAUGUU [bbgvzrmullin] by its apparent KD of K4 kissing-loop reporter when you get a moment.
band 1

State the band of CUGACGCUGAUACGGUGGCCGCUGGUCGUGCGAGGACCGGUACGGCCGCCACUCGCAUGAGUGAUGUUCAUGUGUCGUCGUCGUC [#07 K4 Tryptophan A Exclusion]
band 1

----------
Test system: MS2 coat protein
Assay: apparent KD of MS2 coat protein; designed switch direction (-1 OFF switch, 1 ON switch): -1; higher = weaker reporter binding
Conditions: input ligand: none
Answer Criterion not met if apparent KD of MS2 coat protein is under 40 nM, and Criterion met if it is 40 nM or more.

# count of solved cases: 3
item-sequence	assigned-category
AUAUAGCGAGGAUAUACAUGAGGAUCACCCAUGUAGGUUCCGGGUUUUCCAGUAAAAUGUAGAAGGCGCAUGGA [EX3 B.5] (Eterna round: R97, puzzle: Exclusion 3)	Criterion met
CUAAUACAUCAGGAUAUCUAUGAUUAUAGCCAUAGAGAAGGGAUGACAUGAGGAUCACCCAUGUCAAAGGGUGA [eternacac ex6r4 sub21] (Eterna round: R97, puzzle: Exclusion 6)	Criterion met
GGGAAGAACCAACAAGCAAACAUGAGGAUCACCCAUGUAGUAGGAGGAAGAAAGGUGAUUUAGAAAGCUCGACUUAU [AK-miRNA-r3-6] (Eterna round: R97, puzzle: Sensor, turn-off variant 1)	Criterion met

Assess whether reported apparent KD of MS2 coat protein for GCCCGGGCAGGAUAUACAAUGAAGUUGAGAAAUCGGCUUCGACAUGAGGAUCACCCAUGUAGAAGGGCCCGGGC [-36.9, -34.6 kcal, A 28% 3] (Eterna round: R97, puzzle: Exclusion 2) sits at 40 nM or higher.
Criterion not met

Answer whether apparent KD of MS2 coat protein of AAUGGAUGUGUUAGGAUAUCCGGAGGGAAACCUCCGGAGAAGGAACAUGAGGAUCACCCAUGUAUGUAAAAUAC [AK-MS2ROC-r4-Bmoexclusion4-3] (Eterna round: R97, puzzle: Brourd's mod of Exclusion 4) is greater than or equal to 40 nM.
Criterion met

Given the entry UUGUUACAUGAGGAUCACCCAUGUGAGGAUAUGGUUCAGUACUGUCAUGUCAAGUACUCCAGAAGGCACAUGUU [1st #30] (Eterna round: R97, puzzle: Exclusion 1) , answer whether its apparent KD of MS2 coat protein meets or surpasses 40 nM.
Criterion met

Say whether CCUCCCUGAGGAUAUCCACCCUCAUACAUGAGGAUCACCCAUGUUCAUCCGUGGGUACCCGGAGAAGGCAGAUUUC [Megrez-a] (Eterna round: R97, puzzle: Exclusion 5) shows apparent KD of MS2 coat protein of 40 nM or more.
Criterion not met

Is the recorded value of apparent KD of MS2 coat protein equal to or greater than 40 nM for this sequence? UGCGAAGAGUGAGGAUAUGUGCGACAAAGUUGCACAGAAGGCACAUGAGGAUCACCCAUGUGAGCUAGGUCGAAAGACCUAGCG [Omei Exc(NG)1 Av7] (Eterna round: R96, puzzle: Exclusion NG 1)
Criterion not met

For this sequence, is measured apparent KD of MS2 coat protein 40 nM or higher? AACCUGAGGCUUUGCUUUAGGUGUACAUGAGGAUCACCCAUGUAGGAUAUGGUAGGCUUUGCUUACCAGAAGGACAUUAUGAUG [JL ENG3 1.17] (Eterna round: R96, puzzle: Exclusion NG 3)
Criterion met

Could you verify whether the entry CUGCUGGAGCGGCGCUUUGGUCGUACAUGAGGAUCACCCAUGUAGGAUAUGGUAAAAUUUGCUUGCUAGAAGGAUAGAGUGGUC [salish99_ExNG3_r04_615] (Eterna round: R96, puzzle: Exclusion NG 3) shows apparent KD of MS2 coat protein of no less than 40 nM?
Criterion met

----------
Test system: MS2 coat protein
Assay: apparent KD of MS2 coat protein; designed switch direction (-1 OFF switch, 1 ON switch): 1; higher = weaker reporter binding
Settings: input ligand: FMN 200 uM
Use Satisfied when the recorded apparent KD of MS2 coat protein is no lower than 70 nM; use Not satisfied when it is lower.

Example entries begin here.
item-sequence	tested-target	assigned-category
GAGCCAGUCCGAGGAUAUUCAUAACAUGAGGAUCACCCAUGUAGGCUCAGAAAAGAAGAGCCUUGGGAGAAGGCGGACUGGCUC [Xeonanisa<<5] (Eterna round: R96, puzzle: Same State NG 2)	MS2 coat protein	Not satisfied
GGUAGGUUACUACCAGACAUGAGGAUCACCCAUGUAAGUGGGAAGGAUAUGGUACCGUUUCGGUACCAGAAGGUCCUAAAUGAG [JL SSNG3 1.46] (Eterna round: R96, puzzle: Same State NG 3)	MS2 coat protein	Satisfied
GAGAGAUGGCGAGGAUAUUCGGUGAUAAUGAUGGAAGAAGGCGCUGACAUGAGGAUCACCCAUGUGGGAAUAAUCCAGAGAGAG [Parity 16 - Jieux - Same State NG 1] (Eterna round: R96, puzzle: Same State NG 1)	MS2 coat protein	Satisfied

We now examine a further sequence.
Threshold query (apparent KD of MS2 coat protein >= 70 nM) on AACAAUCUAUCUGAGGAUAUCAUGUCAAAGACAUGAGGAUCACCCAUGUACCAGGAAACUGGAUAUGAGAAGGCAGAUAGAUUGA [SS2: 1119] (Eterna round: R96, puzzle: Same State 2)
Not satisfied

----------
Test system: MS2 coat protein
Test: apparent KD of MS2 coat protein; designed switch direction (-1 OFF switch, 1 ON switch): -1; higher = weaker reporter binding
Conditions: Eterna round: R95; input ligand: microRNA oligo, concentration not stated
measurement-type: apparent KD of MS2 coat protein
Number first, unit second.

item-sequence	apparent KD of MS2 coat protein
UUGUACAUAGGAUAUAGUUGUUUGUACAUGAGGAUCACCCAUGUUAUGUAUGUUUUGCUUCUAGAAGGAUGUUGUU [JR_E5_Sub004] (puzzle: Exclusion 5)	28 nM

# lookup: apparent KD of MS2 coat protein of GAAAAGGUAGGAUAUACGUAAAAAAAGGGUAGAAAAAAAACACAUGAGGAUCACCCAUGUAGAAGGACCAAAAG [salish99_ex2_r3_087] (puzzle: Exclusion 2)
24.7 nM

What measured apparent KD of MS2 coat protein goes with GUGUACAGAGGAUAUACUCGAAUCUAGCGAAGCUAGGUUUGACAUGAGGAUCACCCAUGUAGAAGGCUGUACAC [Dot plot directed A] (puzzle: Exclusion 2) ?
13.8 nM

May I ask what apparent KD of MS2 coat protein has been recorded for UGAUCUUUUGUUAGGAUAUGCUGUUGUUUUCAACAGCAGAAGGGACAUGAGGAUCACCCAUGUCUUGUCAUAAA [Magic-04] (puzzle: Brourd's mod of Exclusion 4) ?
12.7 nM
